// provenance: paper PMC3359377

- tgt: GH3-1 (Vitis vinifera, UniProt F6H697)
- Sequence (F6H697 1-598): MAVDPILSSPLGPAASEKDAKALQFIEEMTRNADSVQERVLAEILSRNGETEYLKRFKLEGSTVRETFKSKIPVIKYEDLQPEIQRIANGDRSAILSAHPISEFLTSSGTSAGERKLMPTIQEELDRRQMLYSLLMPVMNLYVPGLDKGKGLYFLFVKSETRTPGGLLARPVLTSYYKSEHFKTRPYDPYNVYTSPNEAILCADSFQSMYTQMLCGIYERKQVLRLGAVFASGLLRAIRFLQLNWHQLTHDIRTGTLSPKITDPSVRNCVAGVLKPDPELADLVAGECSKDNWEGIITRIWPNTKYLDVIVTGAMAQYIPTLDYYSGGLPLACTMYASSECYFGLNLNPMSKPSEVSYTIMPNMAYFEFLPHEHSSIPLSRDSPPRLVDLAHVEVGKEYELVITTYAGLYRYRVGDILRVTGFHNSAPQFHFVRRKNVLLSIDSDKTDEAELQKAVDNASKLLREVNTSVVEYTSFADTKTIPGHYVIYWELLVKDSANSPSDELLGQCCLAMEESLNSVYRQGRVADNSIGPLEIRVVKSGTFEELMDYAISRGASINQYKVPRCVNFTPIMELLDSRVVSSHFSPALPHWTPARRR
- experimental_details: IAA-Asp formation by LC-ESI-MS/MS with recombinant enzyme; Dixon plots
metric_name: Ki (nM)
The figure you give is taken to be in nM; do not add the unit.

Exercise: Give the value of Ki reported for the following: Nc1ncnc2c1ncn2[C@@H]1O[C@H](COP(=O)(O)OCCc2c[nH]c3ccccc23)[C@@H](O)[C@H]1O [AIEP]
Key: 200
